target: Lp-PLA2 in human plasma (Homo sapiens); construct: from tissue; host or cells: pooled human plasma; assay: Lp-PLA2 human plasma assay (Thio-PAF assay); format: biochemical; details: pooled human plasma; read-out: pIC50 values in the thio-PAF assay (converted)
Parameter Measured: IC50

Please review the entries below; each comes with its answer.
1) C[C@@H]1CCn2c(cc(OCc3ccc(Oc4ccc(F)c(F)c4)c(F)c3)nc2=O)N1C :: ≤ 0.1 µM
2) C[C@@H]1CCn2c(cc(OCc3cc(F)c(Oc4ccnc(C(F)(F)F)c4)c(F)c3)nc2=O)N1C :: ≤ 0.01 µM
3) C[C@H]1CCn2c(cc(OCc3cc(F)c(Oc4cccc(F)c4)c(F)c3)nc2=O)N1C :: ≤ 0.1 µM

Ask: IC50 for C[C@H]1CCn2c(cc(OCc3cc(F)c(Oc4cnc(C(F)(F)F)nc4)c(F)c3)nc2=O)N1C ?
Result: ≤ 0.1 µM

====

# Lookup of reported IC50 keyed by entry
Target: Lp-PLA2 in human plasma (Homo sapiens, UniProt Q13093)
Construct: from tissue; host or cells: pooled human plasma
Sequence (Q13093 22-441): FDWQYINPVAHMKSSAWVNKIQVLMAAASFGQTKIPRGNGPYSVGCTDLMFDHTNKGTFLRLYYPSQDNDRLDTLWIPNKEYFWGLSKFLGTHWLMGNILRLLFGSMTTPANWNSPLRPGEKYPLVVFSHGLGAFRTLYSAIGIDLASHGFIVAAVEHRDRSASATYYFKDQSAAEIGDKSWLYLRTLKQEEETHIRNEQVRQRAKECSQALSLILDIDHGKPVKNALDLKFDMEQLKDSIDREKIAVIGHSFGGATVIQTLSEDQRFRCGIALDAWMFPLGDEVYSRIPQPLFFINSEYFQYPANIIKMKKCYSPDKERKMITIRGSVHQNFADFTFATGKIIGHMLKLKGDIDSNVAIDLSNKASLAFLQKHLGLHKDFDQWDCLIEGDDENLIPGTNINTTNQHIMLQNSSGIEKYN
Experiment: Lp-PLA2 human plasma assay (Thio-PAF assay)
Format: biochemical
Conditions: pooled human plasma; read-out: pIC50 values in the thio-PAF assay (converted)

1. C[C@@H]1CCn2c(cc(OCc3ccc(Oc4ccc(C(F)(F)F)nc4)c(F)c3)nc2=O)N1C :: ≤ 10 nM
2. [2H]C([2H])(Oc1cc2n(c(=O)n1)CC[C@@H](C)N2C)c1cccc(F)c1F :: ≤ 100 nM
3. C[C@@H]1CCn2c(cc(OCc3cc(F)c(Oc4cccc(F)c4)c(F)c3)nc2=O)N1C :: ≤ 100 nM
4. C[C@H]1CCn2c(cc(OCc3ccc(Oc4ccc(F)c(F)c4)c(F)c3)nc2=O)N1C :: ≤ 100 nM
5. C[C@@H]1CCn2c(cc(OCc3ccc(Oc4cccc(C(F)(F)F)c4)c(C#N)c3)nc2=O)N1C :: ≤ 10 nM

Ask: Field: IC50 (Lp-PLA2 in human plasma (Homo sapiens, UniProt Q13093)). Entry: C[C@@H]1CCn2c(cc(OCc3cc(F)c(Oc4cccc(C(F)(F)F)c4)c(F)c3)nc2=O)N1C
Result: ≤ 10 nM

Ask: // map [2H]C([2H])(Oc1cc2n(c(=O)n1)CCC(C)(C)N2C)c1cc(F)c(F)cc1F to recorded IC50 (system: Lp-PLA2 in human plasma (Homo sapiens, UniProt Q13093))
Result: ≤ 100 nM

Ask: Report IC50 for C[C@@H]1CCn2c(cc(OCc3ccc(Oc4ccc(Cl)c(C(F)(F)F)c4)c(F)c3)nc2=O)N1C tested on Lp-PLA2 in human plasma (Homo sapiens, UniProt Q13093).
Result: ≤ 10 nM
